These entries and their values trace back to the Immune Epitope Database (IEDB).

Target: HLA-A*03:01
Test: IEDB peptide-MHC binding, purified MHC/competitive/radioactivity; filed as Kd, often an IC50 or EC50 that approximates it; bounds were set here for any values at or beyond the usual limits of such assays
Condition parameters: source organism: Triticum aestivum

| Input sequence | Target | Kd |
| --- | --- | --- |
| SSQVLQQSTY | HLA-A*03:01 | 13.5 µM |

* * *

Target: HLA-A*26:01
Test: IEDB peptide-MHC binding, purified MHC/competitive/fluorescence; filed as Kd, often an IC50 or EC50 that approximates it; bounds were set here for any values at or beyond the usual limits of such assays
Condition parameters: source organism: Yersinia pestis Antiqua
Quantity: Kd (nM)

| Input sequence | Target | Quantity | Recorded number |
| --- | --- | --- | --- |
| LIIDEIGYL | HLA-A*26:01 | Kd | 4.4 |

* * *

Target: HLA-B*44:02
Test: IEDB peptide-MHC binding, purified MHC/direct/fluorescence; filed as Kd, often an IC50 or EC50 that approximates it; bounds were set here for any values at or beyond the usual limits of such assays
Condition parameters: source organism: Orthohantavirus andesense
pKd: −log10 of the molar value.
Quantity: pKd

| Input sequence | Recorded number |
| --- | --- |
| YEGDLRVTF | 5.37 |

* * *

Target: HLA-A*01:01
Test: IEDB peptide-MHC binding, purified MHC/direct/fluorescence; filed as Kd, often an IC50 or EC50 that approximates it; bounds were set here for any values at or beyond the usual limits of such assays
Condition parameters: source organism: Camelpox virus M-96

| Input sequence | Kd |
| --- | --- |
| VMCIQMKYV | ≥ 20 µM |

* * *

Target: HLA-A*69:01
Test: IEDB peptide-MHC binding, purified MHC/direct/fluorescence; filed as Kd, often an IC50 or EC50 that approximates it; bounds were set here for any values at or beyond the usual limits of such assays
Condition parameters: source organism: Salmonella enterica subsp. enterica serovar Typhi
Quantity: Kd (nM)

| Input sequence | Quantity | Measurement unit | Recorded number |
| --- | --- | --- | --- |
| AAGLPAIFV | Kd | nM | 1070 |

* * *

Target: HLA-B*46:01
Test: IEDB peptide-MHC binding, purified MHC/competitive/fluorescence; filed as Kd, often an IC50 or EC50 that approximates it; bounds were set here for any values at or beyond the usual limits of such assays
Condition parameters: source organism: Rickettsia sibirica 246

| Input sequence | Target | Kd |
| --- | --- | --- |
| SVANIDRIK | HLA-B*46:01 | ≥ 20 µM |

* * *

Target: HLA-A*02:16
Test: IEDB peptide-MHC binding, purified MHC/direct/fluorescence; filed as Kd, often an IC50 or EC50 that approximates it; bounds were set here for any values at or beyond the usual limits of such assays
Condition parameters: source organism: Bacillus cereus H3081.97
Quantity: Kd

| Input sequence | Quantity | Result |
| --- | --- | --- |
| YSTVRDLFL | Kd | ≥ 20 µM |

* * *

Target: HLA-A*11:01
Test: IEDB peptide-MHC binding, purified MHC/direct/fluorescence; filed as Kd, often an IC50 or EC50 that approximates it; bounds were set here for any values at or beyond the usual limits of such assays
Condition parameters: source organism: Burkholderia mallei
pKd: −log10 of the molar value.

| Input sequence | pKd |
| --- | --- |
| KLYPNVDFY | 6.65 |

* * *

Target: HLA-A*02:16
Test: IEDB peptide-MHC binding, purified MHC/competitive/fluorescence; filed as Kd, often an IC50 or EC50 that approximates it; bounds were set here for any values at or beyond the usual limits of such assays
Condition parameters: source organism: Escherichia coli 536
pKd: −log10 of the molar value.

| Input sequence | pKd |
| --- | --- |
| RVGIYFGMK | ≤ 4.70 |

* * *

Target: HLA-B*51:01
Test: IEDB peptide-MHC binding, purified MHC/competitive/radioactivity; filed as Kd, often an IC50 or EC50 that approximates it; bounds were set here for any values at or beyond the usual limits of such assays
Condition parameters: source organism: Mammarenavirus juninense

| Input sequence | Target | Kd / µM |
| --- | --- | --- |
| TPENFSSLI | HLA-B*51:01 | 1.96 |

* * *

Reported Kd values for the following sequences.
Target: HLA-B*15:42
Test: IEDB peptide-MHC binding, purified MHC/competitive/fluorescence; filed as Kd, often an IC50 or EC50 that approximates it; bounds were set here for any values at or beyond the usual limits of such assays
Condition parameters: source organism: Yersinia pestis Nepal516

| Input sequence | Kd |
| --- | --- |
| MLYPLLWMF | ≥ 5 µM |
| GSYFSGFYK | ≥ 5 µM |

* * *

Target: HLA-B*18:01
Test: IEDB peptide-MHC binding, purified MHC/direct/fluorescence; filed as Kd, often an IC50 or EC50 that approximates it; bounds were set here for any values at or beyond the usual limits of such assays
Condition parameters: source organism: Influenza A virus (A/duck/Mongolia/47/2001(H7N1))
pKd: −log10 of the molar value.
Quantity: pKd

| Input sequence | Result |
| --- | --- |
| THFQRKRRV | ≤ 4.70 |

* * *

Target: HLA-B*40:02
Test: IEDB peptide-MHC binding, purified MHC/competitive/radioactivity; filed as Kd, often an IC50 or EC50 that approximates it; bounds were set here for any values at or beyond the usual limits of such assays
Condition parameters: source organism: SARS coronavirus Tor2
Please assign FALSE whenever Kd is at or above 300 nM, and TRUE whenever it is below.

| Input sequence | Class label |
| --- | --- |
| VELVAEMDG | FALSE |
| AEIRASANLA | FALSE |
| FELTSMKYF | FALSE |
| WEIQQVVDA | TRUE |
| VEYPIIGDEL | FALSE |
| TERLKLFAA | TRUE |
| SEMVMCGGSL | FALSE |

* * *

Target: HLA-B*57:01
Test: IEDB peptide-MHC binding, purified MHC/competitive/fluorescence; filed as Kd, often an IC50 or EC50 that approximates it; bounds were set here for any values at or beyond the usual limits of such assays
Condition parameters: source organism: Cryptosporidium parvum Iowa II
pKd: −log10 of the molar value.
Quantity: pKd

| Input sequence | Result |
| --- | --- |
| VYWENEVSI | ≤ 4.70 |

* * *

Target: HLA-B*39:01
Test: IEDB peptide-MHC binding, purified MHC/competitive/fluorescence; filed as Kd, often an IC50 or EC50 that approximates it; bounds were set here for any values at or beyond the usual limits of such assays
Condition parameters: source organism: Kurkino virus

| Input sequence | Target | Kd |
| --- | --- | --- |
| WFLYVSQQI | HLA-B*39:01 | ≥ 20 µM |

* * *

Target: HLA-A*69:01
Test: IEDB peptide-MHC binding, purified MHC/direct/fluorescence; filed as Kd, often an IC50 or EC50 that approximates it; bounds were set here for any values at or beyond the usual limits of such assays
Condition parameters: source organism: Orthohantavirus hantanense
pKd: −log10 of the molar value.
Quantity: pKd

| Input sequence | Recorded number |
| --- | --- |
| NAHEGQLVI | 5.47 |

* * *

Target: HLA-B*53:01
Test: IEDB peptide-MHC binding, purified MHC/competitive/radioactivity; filed as Kd, often an IC50 or EC50 that approximates it; bounds were set here for any values at or beyond the usual limits of such assays
Condition parameters: source organism: Vaccinia virus Copenhagen

| Input sequence | Kd |
| --- | --- |
| LILSCIFAFI | 1840 nM |

* * *

Reported Kd values for the following sequences.
Target: HLA-B*46:01
Test: IEDB peptide-MHC binding, purified MHC/competitive/fluorescence; filed as Kd, often an IC50 or EC50 that approximates it; bounds were set here for any values at or beyond the usual limits of such assays
Condition parameters: source organism: Orthohantavirus andesense

| Input sequence | Target | Kd |
| --- | --- | --- |
| RWASGVSEI | HLA-B*46:01 | ≥ 20 µM |
| STGKSIKFK | HLA-B*46:01 | ≥ 20 µM |

* * *

Target: HLA-B*27:03
Test: IEDB peptide-MHC binding, purified MHC/competitive/fluorescence; filed as Kd, often an IC50 or EC50 that approximates it; bounds were set here for any values at or beyond the usual limits of such assays
Condition parameters: source organism: Lechiguanas virus
Quantity: Kd

| Input sequence | Result |
| --- | --- |
| HTQAIEGAW | ≥ 20 µM |

* * *

Target: HLA-A*11:01
Test: IEDB peptide-MHC binding, purified MHC/direct/fluorescence; filed as Kd, often an IC50 or EC50 that approximates it; bounds were set here for any values at or beyond the usual limits of such assays
Condition parameters: source organism: Cryptosporidium parvum

| Input sequence | Target | Kd |
| --- | --- | --- |
| KHNSAESAK | HLA-A*11:01 | ≥ 20 µM |
